Value source: ChEMBL document CHEMBL1821561

assaySystem: D(1A) dopamine receptor (Homo sapiens)
assayInfo: Agonist activity at human dopamine D1 receptor expressed in HEK293 cells assessed as cAMP accumulation after 15 mins
assayMetric: pEC50
By convention, pEC50 is the negative base-10 log of a molar concentration.

pEC50 reading for Oc1cc2c(cc1O)[C@H]1c3ccccc3SC[C@@H]1NCC2 (racemic) : 6.23

pEC50 reading for Oc1cc2c(cc1O)[C@H]1c3ccccc3CC[C@@H]1NCC2 (racemic) : 6.36

pEC50 reading for Oc1cc2c(cc1O)[C@H]1c3ccccc3OC[C@@H]1NCC2 (racemic) : 6.24

----------
assaySystem: D(1A) dopamine receptor (Homo sapiens, UniProt P21728)
Sequence (P21728 whole entry): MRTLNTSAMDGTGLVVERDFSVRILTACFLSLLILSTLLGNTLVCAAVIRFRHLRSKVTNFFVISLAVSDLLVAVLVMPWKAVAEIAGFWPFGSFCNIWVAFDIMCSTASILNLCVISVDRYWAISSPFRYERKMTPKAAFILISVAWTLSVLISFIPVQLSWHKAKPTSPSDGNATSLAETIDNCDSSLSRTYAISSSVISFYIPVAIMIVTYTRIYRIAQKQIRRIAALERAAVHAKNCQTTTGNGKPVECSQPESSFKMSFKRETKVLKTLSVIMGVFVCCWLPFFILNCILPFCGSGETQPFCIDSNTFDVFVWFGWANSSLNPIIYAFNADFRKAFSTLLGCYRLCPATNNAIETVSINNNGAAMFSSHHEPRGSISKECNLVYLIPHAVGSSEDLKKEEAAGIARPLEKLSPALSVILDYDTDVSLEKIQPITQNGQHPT
assayInfo: Intrinsic activity at human dopamine D1 receptor expressed in HEK293 cells assessed as cAMP accumulation after 15 mins relative to dopamine
Format: functional, cell-based
// NB: equality with 90% counts as FALSE; only Intrinsic activity strictly below is TRUE

Find out if reported Intrinsic activity for Oc1cc2c(cc1O)[C@@H](c1ccccc1)CNCC2 is less than 90% FALSE

Find out if reported Intrinsic activity for Oc1cc2c(cc1O)[C@H]1c3ccccc3CN[C@@H]1CC2 (racemic) [DIHYDREXIDINE] is less than 90% FALSE

Find out if reported Intrinsic activity for Oc1cc2c(cc1O)[C@H]1c3ccccc3SC[C@@H]1NCC2 (racemic) is less than 90% TRUE

Find out if reported Intrinsic activity for Oc1cc2c(cc1O)[C@H]1c3ccccc3OC[C@@H]1NCC2 (racemic) is less than 90% TRUE

Find out if reported Intrinsic activity for Oc1cc2c(cc1O)[C@H]1c3ccccc3CC[C@@H]1NCC2 (racemic) is less than 90% TRUE
